Source of measurements: patent US11981658B2

system-name: EGFR wildtype (WT) (Homo sapiens, UniProt P00533)
Sequence (P00533 25-1210): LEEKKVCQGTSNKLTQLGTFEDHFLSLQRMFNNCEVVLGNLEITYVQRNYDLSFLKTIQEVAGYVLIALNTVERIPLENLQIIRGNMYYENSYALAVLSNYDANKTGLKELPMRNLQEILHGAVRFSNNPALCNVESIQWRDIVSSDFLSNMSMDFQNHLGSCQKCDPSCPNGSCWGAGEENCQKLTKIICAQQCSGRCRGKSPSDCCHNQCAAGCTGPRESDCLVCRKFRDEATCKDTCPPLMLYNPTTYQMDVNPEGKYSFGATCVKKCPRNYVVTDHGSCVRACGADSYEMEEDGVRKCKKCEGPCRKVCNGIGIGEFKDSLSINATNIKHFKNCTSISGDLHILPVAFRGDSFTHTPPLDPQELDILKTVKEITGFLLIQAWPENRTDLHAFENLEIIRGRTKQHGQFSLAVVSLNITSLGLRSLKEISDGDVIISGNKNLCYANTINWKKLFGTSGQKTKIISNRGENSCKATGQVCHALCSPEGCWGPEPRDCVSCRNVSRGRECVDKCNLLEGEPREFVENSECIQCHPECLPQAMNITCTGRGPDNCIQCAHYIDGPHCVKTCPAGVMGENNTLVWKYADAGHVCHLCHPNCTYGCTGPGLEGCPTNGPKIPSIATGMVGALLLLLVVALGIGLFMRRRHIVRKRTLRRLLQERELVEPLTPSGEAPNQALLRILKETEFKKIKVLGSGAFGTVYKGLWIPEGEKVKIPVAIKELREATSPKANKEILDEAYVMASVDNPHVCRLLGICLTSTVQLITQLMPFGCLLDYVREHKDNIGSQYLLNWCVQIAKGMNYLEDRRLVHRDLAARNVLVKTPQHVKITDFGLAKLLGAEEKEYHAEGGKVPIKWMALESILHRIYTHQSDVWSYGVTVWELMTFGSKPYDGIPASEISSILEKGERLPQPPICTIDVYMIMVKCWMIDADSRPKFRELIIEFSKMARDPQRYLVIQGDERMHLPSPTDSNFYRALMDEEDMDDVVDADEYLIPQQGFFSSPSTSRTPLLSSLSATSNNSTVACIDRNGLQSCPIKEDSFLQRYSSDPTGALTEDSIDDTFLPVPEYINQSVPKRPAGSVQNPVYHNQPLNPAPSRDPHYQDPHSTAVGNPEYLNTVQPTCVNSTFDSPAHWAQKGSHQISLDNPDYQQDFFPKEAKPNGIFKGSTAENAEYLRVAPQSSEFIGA
protocol-description: Biochemical EGFR kinase inhibition assay (Lance Ultra TR-FRET), wildtype
condition-context: ATP at Km; read-out: IC50 WT (nM), Km ATP
Where a name gives a salt, the structure may show the parent alone.
measure-name: IC50 (nM)

compound	IC50 (nM)
O=S(=O)(C1CC1)n1cc(-c2nccc(Nc3cc(N[C@H]4CC[C@@H](O)CC4)c(C#Cc4ncc(CN5CCOCC5)cn4)cn3)n2)cn1 [Example 194]	26.1
CN1CCC2(CCN(c3cc(Nc4ccnc(-c5cnn(S(=O)(=O)C6CC6)c5)n4)ncc3C#Cc3cnn(C)c3)CC2)C1 [Example 297, formate]	4.1
CC1(CO)CCN(c2cc(Nc3ccnc(-c4cnn(S(=O)(=O)C5CC5)c4)n3)ncc2C#Cc2ccccn2)CC1 [Example 259]	5.3
CC1(CO)CCN(c2cc(Nc3ccnc(-c4cnn(S(=O)(=O)C5CC5)c4)n3)ncc2C#Cc2cnn(C3COC3)c2)CC1 [Example 245]	6.7
CN(C)Cc1cccc(C#Cc2cnc(Nc3ccnc(-c4cnn(S(=O)(=O)C5CC5)c4)n3)cc2N2CCC(C)(CO)CC2)c1 [Example 255]	1
CC(C)Nc1cc(Nc2ccnc(-c3cnn(S(=O)(=O)C4CC4)c3)n2)ncc1C#CCN1CCOCC1 [Example 202]	312

P: CN(C)S(=O)(=O)n1cc(-c2nccc(Nc3cc(N4CCC(C)(CO)CC4)c(C#Cc4cnn(C(F)(F)F)c4)cn3)n2)cn1 [Example 273]
Q: CN(C)Cc1ccc(C#Cc2cnc(Nc3ccnc(-c4cnn(S(=O)(=O)C5CC5)c4)n3)cc2N2CCC(C)(CO)CC2)cc1 [Example 254]
R: CC(C)Nc1cc(Nc2ccnc(-c3cnn(S(=O)(=O)C4CC4)c3)n2)ncc1C#CC(C)(C)O [Example 204]
S: CC1(CO)CCN(c2cc(Nc3ccnc(-c4cnn(S(=O)(=O)C5CC5)c4)n3)ncc2C#Cc2ncc(CN3CCOCC3)cn2)CC1 [Example 193]
T: CC1(CO)CCN(c2cc(Nc3ccnc(-c4cnn(S(=O)(=O)C5CC5)c4)n3)ncc2C#CC2CCOCC2)CC1 [Example 179]
Parameters: sort_field (IC50), sort_dir (desc). Order the labels as requested and list them.
R, P, T, S, Q
(R: 264 nM, P: 46.1 nM, T: 6.2 nM, S: 2.2 nM, Q: 0.9 nM)

P: O=S(=O)(C1CC1)n1cc(-c2nccc(Nc3cc(N[C@H]4CC[C@@H](O)CC4)c(C#CC4(O)CCCC4)cn3)n2)cn1 [Example 176]
Q: CNCCC1CCN(c2cc(Nc3ccnc(-c4cnn(S(=O)(=O)C5CC5)c4)n3)ncc2C#Cc2cnn(C)c2)CC1 [Example 153]
R: CC1(CO)CCN(c2cc(Nc3ccnc(-c4cnn(S(=O)(=O)C5CC5)c4)n3)ncc2C#CC2CC2)CC1 [Example 250]
S: CC1(CO)CCN(c2cc(Nc3ccnc(-c4cnn(S(=O)(=O)C5CC5)c4)n3)ncc2C#Cc2ccc(CN3CCOCC3)s2)CC1 [Example 191]
Order each entry by recorded IC50, climbing from the minimum. Put the labels in the order asked and list them.
Q, S, R, P
(Q: 1.9 nM, S: 8.1 nM, R: 15 nM, P: 40.1 nM)

P: CN1CCC(C#Cc2cnc(Nc3ccnc(-c4cnn(S(=O)(=O)C5CC5)c4)n3)cc2N2CCC(C)(CO)CC2)C1 (centres unmarked) [Example 180]
Q: CC(C)Nc1cc(Nc2ccnc(-c3cnn(S(=O)(=O)C4CC4)c3)n2)ncc1C#CCCCNC(=O)N1CCOCC1 [Example 207]
// which entry has the larger IC50 value, P or Q ? In your reply, give the label of the chosen option.
Q
